study system: CYP2D6 (Homo sapiens, UniProt P10635)
Sequence (P10635 whole entry): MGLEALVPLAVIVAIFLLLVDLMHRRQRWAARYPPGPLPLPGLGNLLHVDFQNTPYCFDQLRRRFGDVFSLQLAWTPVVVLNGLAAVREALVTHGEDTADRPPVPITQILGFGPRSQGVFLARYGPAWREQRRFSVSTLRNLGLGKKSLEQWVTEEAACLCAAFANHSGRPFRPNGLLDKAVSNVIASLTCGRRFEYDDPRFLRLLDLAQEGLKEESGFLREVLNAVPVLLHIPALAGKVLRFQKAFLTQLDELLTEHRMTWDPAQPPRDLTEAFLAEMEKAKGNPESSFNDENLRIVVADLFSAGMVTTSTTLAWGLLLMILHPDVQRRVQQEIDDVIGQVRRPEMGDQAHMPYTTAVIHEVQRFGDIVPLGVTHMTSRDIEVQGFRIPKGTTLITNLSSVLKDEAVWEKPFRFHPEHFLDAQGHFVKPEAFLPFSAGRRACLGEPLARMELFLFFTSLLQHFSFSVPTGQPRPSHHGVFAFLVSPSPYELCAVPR
assay method text: in vitro
protocol conditions: microsomes
readout name: inhibition at 10 µM (%)
Kindly provide the numeric value in % only, without the unit symbol.

{"compound": "CC(C)Cn1c(SCC(=O)N2CCc3ccccc3C2)nc2cc(Cl)ccc2c1=O [MLS-0219419]", "inhibition at 10 µM (%)": -21}

inhibition at 10 µM recorded for this compound, Brc1ccccc1-c1nnc(CSc2nnnn2-c2ccccc2)o1 [MLS-0046818] , is -128
